# Tested on: CAKI-1 renal
# protocol_text: NCI-60 one-dose screen, 48 h
# settings: 10 µM unless noted
About 83,000 compounds went through this panel and 20% of them were active in at least one assay; those are over-represented in the sample as a whole. Calls of active or inactive are those of the source. How the source made its calls: active means growth percent below 10; inactive means the rest.
Reply using exactly one outcome from active, inactive

How did this test come out for "CC1=C(C(=O)Nc2nc(-c3ccc(Cl)cc3)cs2)[C@H](c2ccc(O)cc2)NC(=O)N1" ?
inactive

State the result this test recorded for CC1=CC(c2ccco2)=C2C(N)=NNC2N1 (centres undefined) .
inactive

Could you kindly confirm the outcome this assay logged for CC1C=CC(OC(=O)C(C)(O)CCC(O)(C(=O)OC2CC(O)C(C(C)C)CC2(C)O)C(C)C)(C(C)C)CC1 (centres undefined) ?
active

Fill in: this test's call for "Cc1ccc2c(=O)cc(C(=O)Nc3sc4c(c3C(=O)NCc3cccnc3)CCCC4)oc2c1C" is ___
inactive

Given "CN1CCN(Cc2ccc(NC(=O)c3cncc(C#Cc4cnc(N)c5ncccc45)c3)cc2C(F)(F)F)CC1" , state the outcome it received in this test.
active

Entry "CC/C=C\C[C@H](O)C/C=C1/C(=O)C=C[C@@H]1C/C=C\CCCC(=O)O" : call = ?
inactive

What classification did "COc1ccccc1C(=O)Nc1cccc(NC(=O)c2ccoc2C)c1" end up with in this test?
inactive

Call for entry "O=C(CCCCCNC(=O)c1cc(=O)c(O)co1)Nc1ccccc1" :
inactive

So what was the verdict on "CCCCNC(=O)Oc1ccc(/C(=C(/C)Cc2ccc(OC)cc2)c2ccc(OCCN3CCCCCC3)cc2)cc1" in this test?
inactive

Please state the recorded outcome for this compound: "CCN(CC)c1ccc(CNc2cc(C)nc3ccccc23)cc1"
inactive

Fill in: this test's call for "C#CCNC(=O)[C@]1(C)CCC[C@@]2(C)[C@H]1CC=C1C=C(C(C)C)CC[C@@H]12" is ___
inactive

Please let me know the test result on file for "CCOC(=O)c1c(C)nc2c(c1N)/C(=C/c1ccc(OC)cc1)C(=O)N2Cc1ccccc1" .
inactive

Hi, sorry to bother you, what did the test record for "CCOc1ccc(-n2nc(C(=O)NCc3ccccc3OC)nc2-c2cc(OC)c(OC)c(OC)c2)cc1" ?
inactive

In this assay, the call recorded for "c1ccc(CCNc2c3ccccc3nc3ccccc23)cc1" was what?
inactive

How did this test come out for "NC(=O)c1cnc(Nc2cccc(N)c2)nc1NCCCNC(=O)C1CCC1" ?
inactive

Tell me the assay call for "COc1cnc2c(c1)C(=O)c1c-2n(CCCCl)c(=O)c2ccncc12" please.
inactive

# outcome recorded in this test, key = "O=C(CN1CCCCCC1)Nc1nc2ccc(NCc3ccc(Cl)cc3)cc2s1"
inactive

What did this assay record as the result for "CC1(C)CC[C@]2(CO)CC[C@]3(C)[C@H](CC[C@@H]4[C@@]5(C)CCCNC(C)(C)[C@@H]5CC[C@]43C)[C@H]2[C@H]1O" ?
inactive

What call does the record list for "C=CN(C(=O)N1CCN(c2cc3c(cc2F)c(=O)c(C(=O)O)cn3C2CC2)CC1)c1nc(-c2ccc(OC)cc2)cs1" ?
inactive
